Tested on: A549
Experiment: In vitro antitumor activity against A-549 tumor cells.
Format: functional, cell-based
Conditions: Homo sapiens
Parameter: IC50 (µg/mL)

In the examples that follow, each entry is paired with its recorded IC50.
- Compound: "CC(C)[C@H](C)[C@@]1(C)C[C@@H]1[C@@H](C)C1CCC2C3C/C(=N\\O)C4=CC(=O)CC[C@]4(C)C3CC[C@@]21C (stereo partly drawn)"
  Tested target: "A549"
  IC50 / µg/mL: 5
- Compound: "CC(C)CCCC(C)[C@H]1CCC2C3C/C(=N\\O)C4=CC(=O)CC[C@]4(C)C3CC[C@@]21C (stereo partly drawn)"
  Tested target: "A549"
  IC50 / µg/mL: 1.25
- Compound: "CC(C)CCCC(C)[C@H]1CCC2C3C/C(=N\\O)C4=CC(=O)C(O)=C[C@]4(C)C3CC[C@@]21C (stereo partly drawn)"
  Tested target: "A549"
  IC50 / µg/mL: 0.125
- Compound: "C[C@]12CCC(=O)C=C1/C(=N/O)CC1C2CC[C@@]2(C)C1CC[C@@H]2O (stereo partly drawn)"
  Tested target: "A549"
  IC50 / µg/mL: 5
- Compound: "CC(C)CCCC(C)[C@H]1CCC2C3C/C(=N\\O)C4=C[C@@H](O)[C@@H](O)C[C@]4(C)C3CC[C@@]21C (stereo partly drawn)"
  Tested target: "A549"
  IC50 / µg/mL: 1.25

I = CC(C)CCCC(C)[C@H]1CCC2C3C/C(=N\O)C4=CC(=O)[C@H](O)C[C@]4(C)C3CC[C@@]21C (stereo partly drawn)
II = CC[C@H](CCC(C)[C@H]1CCC2C3C/C(=N\O)C4=CC(=O)CC[C@]4(C)C3CC[C@@]21C)C(C)C (stereo partly drawn)
In: Among I and II , which shows a numerically higher IC50 result? Refer to your chosen entry by its label in the reply.
Out: II
(II: 10 µg/mL, I: 0.125 µg/mL)

###

Tested on: A549
Assay: In vitro antitumor activity against A-549 tumor cells.
Format: functional, cell-based
Conditions: Homo sapiens
Parameter: IC50 (µg/mL)

Some solved entries appear below for comparison.
- Compound: "CC(C)CCCC(C)[C@H]1CCC2C3C/C(=N\\O)C4=CC(=O)[C@@H](O)C[C@]4(C)C3CC[C@@]21C (stereo partly specified)"
  IC50 (µg/mL): 0.125
- Compound: "C[C@@]12CCCC1C1C/C(=N\\O)C3=CC(=O)CC[C@]3(C)C1CC2 (stereo partly specified)"
  IC50 (µg/mL): 5
- Compound: "CC(C)[C@H](C)[C@@]1(C)C[C@@H]1[C@@H](C)C1CCC2C3C/C(=N\\O)C4=C[C@@H](O)CC[C@]4(C)C3CC[C@@]21C (stereo partly specified)"
  IC50 (µg/mL): 10

P = CC(C)CCCC(C)[C@H]1CCC2C3C/C(=N\O)C4=C[C@H](O)[C@H](O)C[C@]4(C)C3CC[C@@]21C (stereo partly specified)
Q = CC(C)CCC[C@@H](C)C1CCC2C3C/C(=N\O)C4=C[C@@H](O)CC[C@]4(C)C3CC[C@@]21C (stereo partly specified)
R = CC(C)CCCC(C)[C@H]1CCC2C3C/C(=N\O)C4=CC=CC[C@]4(C)C3CC[C@@]21C (stereo partly specified)
In: Place the items in sequence of falling IC50. Reply format: the labels, ordered as requested.
Out: Q, R, P
(Q: 10 µg/mL, R: 5 µg/mL, P: 1.25 µg/mL)
